Reported Activity values for the following substances.
- Target or test system: Glucagon-like peptide 1 receptor (Homo sapiens)
- Sequence (P43220 whole entry): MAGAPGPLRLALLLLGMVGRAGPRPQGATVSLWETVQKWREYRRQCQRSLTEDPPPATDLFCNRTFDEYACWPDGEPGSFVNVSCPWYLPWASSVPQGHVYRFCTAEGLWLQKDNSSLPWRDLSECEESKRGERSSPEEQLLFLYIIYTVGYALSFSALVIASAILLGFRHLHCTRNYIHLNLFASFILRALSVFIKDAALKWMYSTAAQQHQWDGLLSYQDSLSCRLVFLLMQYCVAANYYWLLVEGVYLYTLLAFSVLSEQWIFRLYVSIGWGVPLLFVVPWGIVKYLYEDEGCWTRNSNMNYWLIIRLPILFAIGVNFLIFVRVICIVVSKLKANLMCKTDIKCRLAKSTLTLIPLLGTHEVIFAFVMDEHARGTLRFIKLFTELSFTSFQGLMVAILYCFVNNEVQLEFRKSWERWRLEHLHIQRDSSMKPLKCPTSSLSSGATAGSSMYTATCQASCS
- Measurement description: Agonist activity at human GLP-1R expressed in HEK293 cells incubated for 30 mins and assessed as increase in cAMP accumulation measured by HTRF assay relative to control
- Format: functional, cell-based
- Parameters: concentration or dose not given beside the values
Numeric only. Scale: %

The following substances have reported results that may help.
H-HSQGTYTNDVTQYLDSRRAQQFIEWLMNTKRNRNNIA-NH2 : 6.6
H-HSQGTYTNDVTEYLDSRRAQDFIEWLKNGGPSSGAPPPS-NH2 : 18.6
H-HSQGTYTNDVSKYLDSRRAQDFIEWLIKGK-NH2 : 29.3
H-HSQGTYTNDVSKYLDSRRAQQFIEWLMNTKRNRNNIA-NH2 : 7.2
H-HSQGTYTNDVTEYLDSRRAQEFIEWLIKGK-NH2 : 25.6

# next substance below
Asked: Hello, please tell me recorded Activity for this one: "H-HSQGTYTNDVSKYLDSRRAQDFIEWLIKGKPSSGAPPPS-NH2"
Given back: 17.1

All figures here come from ChEMBL document CHEMBL5214890.
